Data origin, for the record: ChEMBL document CHEMBL3769309

- system: Protein deacetylase HDAC6 (Homo sapiens, UniProt Q9UBN7)
- Sequence (Q9UBN7 whole entry, the tested form may be a part): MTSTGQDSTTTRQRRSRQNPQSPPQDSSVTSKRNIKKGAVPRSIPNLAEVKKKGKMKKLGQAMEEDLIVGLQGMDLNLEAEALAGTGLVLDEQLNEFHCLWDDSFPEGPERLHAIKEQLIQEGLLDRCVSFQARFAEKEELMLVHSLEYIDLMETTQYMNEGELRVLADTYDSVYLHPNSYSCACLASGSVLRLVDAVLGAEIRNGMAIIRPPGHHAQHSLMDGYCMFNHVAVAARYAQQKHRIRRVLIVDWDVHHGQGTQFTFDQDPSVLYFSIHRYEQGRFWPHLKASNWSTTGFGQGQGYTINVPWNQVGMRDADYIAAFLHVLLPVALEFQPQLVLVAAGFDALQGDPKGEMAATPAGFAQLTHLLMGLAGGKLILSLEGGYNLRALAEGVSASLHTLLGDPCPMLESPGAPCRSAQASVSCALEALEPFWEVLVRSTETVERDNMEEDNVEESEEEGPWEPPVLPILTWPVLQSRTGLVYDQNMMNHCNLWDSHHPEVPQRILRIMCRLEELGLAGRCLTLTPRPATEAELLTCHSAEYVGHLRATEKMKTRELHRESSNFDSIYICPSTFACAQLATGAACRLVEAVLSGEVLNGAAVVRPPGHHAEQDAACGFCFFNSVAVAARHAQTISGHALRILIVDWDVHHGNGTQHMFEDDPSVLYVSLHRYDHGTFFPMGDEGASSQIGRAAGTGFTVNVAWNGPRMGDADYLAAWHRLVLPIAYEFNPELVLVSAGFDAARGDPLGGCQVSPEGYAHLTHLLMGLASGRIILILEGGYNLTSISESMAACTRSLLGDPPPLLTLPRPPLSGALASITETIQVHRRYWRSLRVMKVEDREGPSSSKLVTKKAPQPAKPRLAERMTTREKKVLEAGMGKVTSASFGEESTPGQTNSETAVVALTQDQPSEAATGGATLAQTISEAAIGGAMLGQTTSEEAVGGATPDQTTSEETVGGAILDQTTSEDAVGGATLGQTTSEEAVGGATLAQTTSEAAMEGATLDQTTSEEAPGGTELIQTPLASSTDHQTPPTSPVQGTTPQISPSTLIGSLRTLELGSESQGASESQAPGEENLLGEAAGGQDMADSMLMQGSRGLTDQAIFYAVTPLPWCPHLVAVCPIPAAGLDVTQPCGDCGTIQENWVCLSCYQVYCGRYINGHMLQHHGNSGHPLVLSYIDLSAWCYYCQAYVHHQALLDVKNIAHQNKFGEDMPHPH
- assaySummary: Inhibition of full length His6-tagged GST-fused recombinant human HDAC6 expressed in High5 insect cells using Boc-Lys (e-acetyl)-AMC as substrate after 3 hrs by fluorescence assay
pIC50: −log10 of the molar value.
assayEndpoint: pIC50

{"columns": ["molecule", "prefixOperator", "measured"],
 "data": [
  ["O=C(NCCCCCNC(=O)c1nc(-c2nccs2)sc1C1CC1)c1cccc(-c2noc(C(F)(F)F)n2)c1", "<", 5.00],
  ["O=C(NCCCCC(=O)C(F)(F)F)c1nc(-c2nccs2)sc1Cc1ccccc1", "=", 7.23],
  ["O=C(NCCCCC(O)C(F)(F)F)c1nc(-c2nccs2)sc1C1CC1 (centres undefined)", "<", 5.00],
  ["Cc1cnc(-c2nc(C(=O)NCCCCC(=O)C(F)(F)F)c(C3CC3)s2)s1", "=", 7.63]
]}

###

- system: Histone deacetylase 3 (Homo sapiens)
- Sequence (O15379 whole entry, the tested form may be a part): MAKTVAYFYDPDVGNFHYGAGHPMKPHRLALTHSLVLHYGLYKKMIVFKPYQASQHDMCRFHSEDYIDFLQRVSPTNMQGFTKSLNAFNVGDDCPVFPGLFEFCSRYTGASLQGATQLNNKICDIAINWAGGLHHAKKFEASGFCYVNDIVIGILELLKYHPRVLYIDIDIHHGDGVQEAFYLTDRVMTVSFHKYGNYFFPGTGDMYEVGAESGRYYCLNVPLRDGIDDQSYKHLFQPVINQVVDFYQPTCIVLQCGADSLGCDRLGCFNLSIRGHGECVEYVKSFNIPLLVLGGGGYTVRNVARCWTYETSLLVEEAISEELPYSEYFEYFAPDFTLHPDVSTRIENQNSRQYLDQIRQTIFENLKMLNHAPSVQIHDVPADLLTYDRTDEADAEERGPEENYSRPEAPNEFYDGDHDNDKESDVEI
- assaySummary: Inhibition of full length His6-tagged GST-fused recombinant human HDAC3 expressed in High5 insect cells using Ac-Lys-Tyr-Lys (e-acetyl)-AMC as substrate after 24 hrs by fluorescence assay
assayEndpoint: IC50 (µM)

{"columns": ["compound", "readoutUnits", "prefixOperator", "measured"],
 "data": [
  ["O=C(NCCCCC(=O)C(F)(F)F)c1nc(-c2nccs2)sc1Cc1ccccc1", "µM", "=", 0.0651],
  ["O=C(NCCCCC(O)C(F)(F)F)c1nc(-c2nccs2)sc1C1CC1 (stereo not drawn)", "µM", "=", 8.86],
  ["O=C(NCCCCCNC(=O)c1nc(-c2nccs2)sc1C1CC1)c1cccc(-c2noc(C(F)(F)F)n2)c1", "µM", ">", 10]
]}

###

- system: Histone deacetylase 1 (Homo sapiens)
- Sequence (Q13547 whole entry, the tested form may be a part): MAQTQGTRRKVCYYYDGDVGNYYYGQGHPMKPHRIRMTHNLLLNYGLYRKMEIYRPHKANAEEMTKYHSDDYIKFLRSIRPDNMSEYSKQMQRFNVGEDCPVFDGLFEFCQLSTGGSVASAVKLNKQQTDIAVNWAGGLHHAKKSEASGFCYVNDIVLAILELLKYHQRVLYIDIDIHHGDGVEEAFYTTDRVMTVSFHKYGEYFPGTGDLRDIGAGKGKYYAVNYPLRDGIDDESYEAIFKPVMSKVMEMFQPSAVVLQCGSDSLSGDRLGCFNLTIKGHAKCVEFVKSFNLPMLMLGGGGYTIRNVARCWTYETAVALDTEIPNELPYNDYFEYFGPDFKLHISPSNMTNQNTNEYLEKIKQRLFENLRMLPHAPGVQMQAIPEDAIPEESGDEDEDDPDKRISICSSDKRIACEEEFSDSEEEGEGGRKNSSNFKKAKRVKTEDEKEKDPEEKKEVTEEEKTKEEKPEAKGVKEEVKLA
- assaySummary: Inhibition of full length His6-tagged GST-fused recombinant human HDAC1 expressed in High5 insect cells using Ac-Lys-Tyr-Lys (e-acetyl)-AMC as substrate after 24 hrs by fluorescence assay
pIC50: −log10 of the molar value.
assayEndpoint: pIC50

{"columns": ["molecule", "measured"],
 "data": [
  ["O=C(NCCCCC(=O)C(F)(F)F)c1nc(-c2nccs2)sc1Cc1ccccc1", 7.18],
  ["O=C(NCCCCC(O)C(F)(F)F)c1nc(-c2nccs2)sc1C1CC1 (stereo not drawn)", "< 5.00"],
  ["O=C(NCCCCCNC(=O)c1nc(-c2nccs2)sc1C1CC1)c1cccc(-c2noc(C(F)(F)F)n2)c1", "< 5.00"]
]}

###

- system: Histone deacetylase 4 (Homo sapiens, UniProt P56524)
- Sequence (P56524 whole entry, the tested form may be a part): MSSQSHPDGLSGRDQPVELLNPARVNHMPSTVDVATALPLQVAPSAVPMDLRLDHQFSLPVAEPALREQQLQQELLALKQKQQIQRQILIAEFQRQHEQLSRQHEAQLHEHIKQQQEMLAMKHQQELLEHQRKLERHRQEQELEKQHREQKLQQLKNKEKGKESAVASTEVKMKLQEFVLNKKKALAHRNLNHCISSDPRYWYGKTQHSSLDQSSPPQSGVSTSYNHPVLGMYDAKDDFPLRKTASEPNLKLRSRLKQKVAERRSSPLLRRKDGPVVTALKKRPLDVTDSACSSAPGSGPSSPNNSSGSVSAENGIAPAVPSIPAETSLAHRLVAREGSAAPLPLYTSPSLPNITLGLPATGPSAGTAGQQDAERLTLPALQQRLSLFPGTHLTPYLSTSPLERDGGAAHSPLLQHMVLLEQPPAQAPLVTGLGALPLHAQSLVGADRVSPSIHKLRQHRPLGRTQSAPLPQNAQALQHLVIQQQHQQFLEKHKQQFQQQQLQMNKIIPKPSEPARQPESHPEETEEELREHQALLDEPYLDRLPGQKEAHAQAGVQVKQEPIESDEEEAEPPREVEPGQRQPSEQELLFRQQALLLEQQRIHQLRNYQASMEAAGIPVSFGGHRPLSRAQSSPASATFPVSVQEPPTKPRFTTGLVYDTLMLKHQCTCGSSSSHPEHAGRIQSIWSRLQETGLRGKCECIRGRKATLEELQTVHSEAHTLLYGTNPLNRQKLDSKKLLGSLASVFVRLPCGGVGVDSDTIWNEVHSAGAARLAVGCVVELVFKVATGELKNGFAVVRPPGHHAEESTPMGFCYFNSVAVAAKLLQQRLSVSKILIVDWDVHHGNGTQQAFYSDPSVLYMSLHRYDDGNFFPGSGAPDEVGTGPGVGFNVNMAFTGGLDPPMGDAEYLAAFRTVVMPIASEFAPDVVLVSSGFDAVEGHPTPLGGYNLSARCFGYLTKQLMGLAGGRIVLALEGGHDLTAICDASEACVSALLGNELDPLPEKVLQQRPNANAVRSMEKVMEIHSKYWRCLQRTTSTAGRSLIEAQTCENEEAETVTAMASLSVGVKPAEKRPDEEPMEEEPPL
- assaySummary: Inhibition of full length His6-tagged GST-fused recombinant human HDAC4 expressed in High5 insect cells using Ac-Lys-Tyr-Lys (e-acetyl)-AMC as substrate after 24 hrs by fluorescence assay
// assign Y if IC50 falls strictly below 70 nM, else N (ties count as N)

{"columns": ["compound", "groupLabel"],
 "data": [
  ["O=C(NCCCC(=O)C(F)(F)F)c1nc(-c2nccs2)sc1C1CC1", "N"],
  ["Cc1cnc(-c2nc(C(=O)NCCCCC(=O)C(F)(F)F)c(C3CC3)s2)s1", "Y"],
  ["Nc1ccccc1NC(=O)CCCCNC(=O)c1nc(-c2nccs2)sc1C1CC1", "N"],
  ["O=C(NCCCCC(O)C(F)(F)F)c1nc(-c2nccs2)sc1C1CC1 (stereo unspecified)", "N"],
  ["O=C(NCCCCC(=O)C(F)(F)F)c1nc(-c2nc3c(s2)CCCC3)sc1C1CC1", "Y"],
  ["O=C(NCCCCCNC(=O)c1nc(-c2nccs2)sc1C1CC1)c1cccc(-c2noc(C(F)(F)F)n2)c1", "N"],
  ["O=C(NCCCCC(=O)C(F)(F)F)c1nc(-c2nccs2)sc1C1CC1", "Y"],
  ["O=C(NCCCCCC(=O)C(F)(F)F)c1nc(-c2nccs2)sc1C1CC1", "N"],
  ["CC(C)Cc1sc(-c2nccs2)nc1C(=O)NCCCCC(=O)C(F)(F)F", "N"],
  ["O=C(NO)NCCCCNC(=O)c1nc(-c2nccs2)sc1C1CC1", "N"]
]}

###

- assaySummary: Antiproliferative activity against human RPMI8226 cells after 72 hrs by CellTiter 96 aqueous non-radioactive cell proliferation assay
- Assay type: functional, cell-based
- statedConditions: RPMI-8226, 72 h
pIC50: −log10 of the molar value.

{"columns": ["molSmiles", "pIC50"],
 "data": [
  ["O=C(NCCCCC(=O)C(F)(F)F)c1nc(-c2nccs2)sc1C1CC1", 7.07]
]}
